# experimental-system: Neu5Ac(a2-3)Gal(b1-4)GlcNAc(b1-3)Gal(b1-4)GlcNAc(b1-3)GalNAc
# run-description: glycan array binding signal (z-score within array); higher = stronger binding
# run-parameters: glycan notation: IUPAC condensed, linker removed
The entries come from a sample that favours the strongest signals as a whole.
readout-label: glycan array binding signal (z-score)
Reply with the value as a number alone.

Asked: Consider the binder Ovorubin (Pomacea canaliculata), J7I2T6 (protein) MFVATSLLLAIATLVVRASPHNYLIMDIEPPKSVSERDILNLLSPLQVKHSFRVTGSTRLLIVIRLDAQSYEKLDEITVPGKVEVIPAVNMADTMERCGVSWPRVELTDDNVTLFESESTLTDVTKEQLKAMLIGYGEHMSGLLQAHRFEYYQAAGATPHRHFVFVNSVPDEIEVFGREGVDIWGGPGEFVVKPQYVTRI and give its recorded glycan array binding signal (z-score).
Given back: 0.207

Asked: Report glycan array binding signal (z-score) for AAL (Agrocybe aegerita), Q6WY08 (protein) MQGVNIYNISAGTSVDLAAPVTTGDIVTFFSSALNLNAGAGNPNNTTLNLFAENGAYLLHIAFRLQENVIIFNSRQPDGPWLVEQRVSDVANQFAGIDGKAMVTVFDHGDKYQVVINEKTVIQYTKQISGLTLSLSYNATEETSIFSTVVEAVTYTGLALEHHHHHH
Given back: -0.106

Asked: Tell me glycan array binding signal (z-score) reported for DC-Sign-R (Homo sapiens), Q9H2X3 (protein) MSDSKEPRVQQLGLLEEDPTTSGIRLFPRDFQFQQIHGHKSSTGCLGHGALVLQLLSFMLLAGVLVAILVQVSKVPSSLSQEQSEQDAIYQNLTQLKAAVGELSEKSKLQEIYQELTQLKAAVGELPEKSKLQEIYQELTRLKAAVGELPEKSKLQEIYQELTRLKAAVGELPEKSKLQEIYQELTRLKAAVGELPEKSKLQEIYQELTELKAAVGELPEKSKLQEIYQELTQLKAAVGELPDQSKQQQIYQELTDLKTAFERLCRHCPKDWTFFQGNCYFMSNSQRNWHDSVTACQEVRAQLVVIKTAEEQNFLQLQTSRSNRFSWMGLSDLNQEGTWQWVDGSPLSPSFQRYWNSGEPNNSGNEDCAEFSGSGWNDNRCDVDNYWICKKPAACFRDE
Given back: 2.49

Asked: Name the recorded glycan array binding signal (z-score) of the item Lb MiSSP8 (Laccaria bicolor) (protein) MYFHTLFACATLMLITTAHASPTVINSLDSRKADLNGDVEARHAADWRRDSDWRRDSDWRRDSDWRRDSD in your answer.
Given back: -0.343

Asked: Give the measured glycan array binding signal (z-score) for SP15308B-bot-339-22-339 (Bacteroides ovatus) (protein) NEWEDEQYEQYVSFKAPIASGSDGVTTIYVRYKDNGKVTYQLPIIVSGSTVNSQDRDIHIAVDKDTLKTLNIERFSLYRPELWYTEMEEDKYEFPETVHIPAGSCVELLNIDFNLQDIDMLEKWVLPLTIVDDGSYAYQSHPRKNYAKALLKVVPFNNYSGSYTASSMKVYTYINGKPDTNARTTDKRTGYVVDNNSIFFYAGLINEDMDKDMRKKYKINVHFKEDGTLDMKQDDPSNEMEFELIGTPTYSSTSVMDATRPYLERRYVQIMFEYDFQDFTYGGSGTEVIPIKYRVAGSMTLLRNINTQIPDEDQQIEW
Given back: -0.308

Asked: Could you please provide reported glycan array binding signal (z-score) for CM2 (Cordyceps militaris) (protein) MEIAEQNVGKSCAIVNLIPPKEGSNIWTAKQVTIARNLPPNRGTGRHQIDWSFGPVKVTGYVDTTNWEIGVTVSIMGIDLGTVYGNLRDGVVLNVDLFLAKGQVRFYLKNGNEVWVHLSVEIRFDGKFEGDYKIITV ? Thanks!
Given back: 3.11
